target: Calcium/calmodulin-dependent protein kinase type II subunit delta (Homo sapiens) (UniProt Q13557); settings: at 0.1 µM;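 also: percent inhibition values are means, taken from the GSK PKIS kinase profiling set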
Sequence (Q13557 whole entry): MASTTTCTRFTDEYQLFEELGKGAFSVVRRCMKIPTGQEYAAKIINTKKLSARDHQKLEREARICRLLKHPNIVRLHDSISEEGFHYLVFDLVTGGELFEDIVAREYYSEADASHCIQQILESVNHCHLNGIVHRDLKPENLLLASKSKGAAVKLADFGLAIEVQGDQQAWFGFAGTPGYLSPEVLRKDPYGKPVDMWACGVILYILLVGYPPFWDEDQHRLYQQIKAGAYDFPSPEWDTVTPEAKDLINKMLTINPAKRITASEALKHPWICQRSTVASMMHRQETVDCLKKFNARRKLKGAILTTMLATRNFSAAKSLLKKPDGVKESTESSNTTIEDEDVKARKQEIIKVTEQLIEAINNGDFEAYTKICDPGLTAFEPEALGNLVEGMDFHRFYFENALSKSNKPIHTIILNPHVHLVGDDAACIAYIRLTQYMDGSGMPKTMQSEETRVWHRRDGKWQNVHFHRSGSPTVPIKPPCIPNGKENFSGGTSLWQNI
Reported inhibition by item:

[
  {
    "compoundStructure": "Cc1ccc(C(=O)NC2CC2)cc1-c1ccc2[nH]ncc2c1",
    "unitTag": "%",
    "inhibition": -2.96
  },
  {
    "compoundStructure": "Cc1ccc(Nc2ccnc(Nc3cccc(C(N)=O)c3)n2)cc1O",
    "unitTag": "%",
    "inhibition": 2.94
  },
  {
    "compoundStructure": "CCOc1nccc2c1nc(-c1nonc1N)n2CC",
    "unitTag": "%",
    "inhibition": 1.48
  },
  {
    "compoundStructure": "N#Cc1cccc(Nc2nccc(-c3cnn4ncccc34)n2)c1",
    "unitTag": "%",
    "inhibition": 17.8
  },
  {
    "compoundStructure": "COc1cc2ncnc(Nc3ccc(C)c(O)c3)c2cc1OC",
    "unitTag": "%",
    "inhibition": 2.6
  },
  {
    "compoundStructure": "c1ccc(Cc2nc3ccc(Nc4ncnc5ccccc45)cc3[nH]2)cc1",
    "unitTag": "%",
    "inhibition": 1.68
  },
  {
    "compoundStructure": "COc1cccc(-n2ncc3c(N/N=C/c4ccc(C)cc4)ncnc32)c1",
    "unitTag": "%",
    "inhibition": 4.56
  },
  {
    "compoundStructure": "CN1CCN(C(=O)c2ccc(NC(=O)Nc3ccc(N(C)c4ccnc(Nc5ccc(CS(C)(=O)=O)cc5)n4)cc3)cc2)CC1",
    "unitTag": "%",
    "inhibition": 1.38
  },
  {
    "compoundStructure": "COc1cc(/C=N/Nc2ncnc3c2cnn3C(C)C)ccc1O",
    "unitTag": "%",
    "inhibition": 0.75
  },
  {
    "compoundStructure": "Cc1ccc(O)cc1Nc1ccnc2ccc(S(C)(=O)=O)cc12",
    "unitTag": "%",
    "inhibition": 3.19
  },
  {
    "compoundStructure": "Nc1nccc(-c2c(-c3ccc(F)cc3)ncn2CCCN2CCOCC2)n1",
    "unitTag": "%",
    "inhibition": 1.96
  }
]

* * *

target: SRSF protein kinase 3 (Homo sapiens); settings: at 1 µM;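 also: values are mean inhibition of MSSK1 (alias of SRPK3)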
Each entry below lists one item and its recorded inhibition value.
measuredAttribute: inhibition

[
  {
    "compoundStructure": "Cc1cc(O)cc(C)c1/C=C/c1cncc(C(=O)N(C)C)c1",
    "measurement": "2.35%"
  },
  {
    "compoundStructure": "COC(=O)c1ccc2c(c1)C(=Cc1cc(Br)c(O)c(Br)c1)C(=O)N2",
    "measurement": "-0.06%"
  },
  {
    "compoundStructure": "c1ccc(Nc2ncc(-c3ccccc3)o2)cc1",
    "measurement": "-0.17%"
  },
  {
    "compoundStructure": "[O-][S+]1CCN(Cc2ccc(-c3ccc4ncnc(Nc5ccc(OCc6ccccc6)c(Cl)c5)c4c3)o2)CC1",
    "measurement": "0.03%"
  },
  {
    "compoundStructure": "Cc1ccc(C(=O)NC2CC2)cc1-c1ccc2[nH]ncc2c1",
    "measurement": "-0.89%"
  },
  {
    "compoundStructure": "NS(=O)(=O)c1ccc(N/N=C2\\C(=O)Nc3ccc(Cl)cc32)cc1",
    "measurement": "0.76%"
  },
  {
    "compoundStructure": "CCn1c(-c2nonc2N)nc2c(C#CC(C)(C)O)nc(OCCNC)cc21",
    "measurement": "-0.46%"
  },
  {
    "compoundStructure": "CN(C)C(=O)O[C@H]1CN[C@H](C#Cc2cc3ncnc(Nc4ccc(OCc5cccc(F)c5)c(Cl)c4)c3s2)C1",
    "measurement": "-1.8%"
  },
  {
    "compoundStructure": "COc1cc2ncnc(Nc3ccc(C)c(O)c3)c2cc1OC",
    "measurement": "0.42%"
  },
  {
    "compoundStructure": "COc1cc(/C=N/Nc2ncnc3c2cnn3C(C)C)ccc1O",
    "measurement": "-1.29%"
  },
  {
    "compoundStructure": "C[C@@H](Oc1cc(-n2cnc3ccc(OCC4CCN(C)CC4)cc32)sc1C(N)=O)c1ccccc1C(F)(F)F",
    "measurement": "0.15%"
  },
  {
    "compoundStructure": "CCS(=O)(=O)c1ccc(OC)c(Nc2nccc(N(C)c3ccc4c(C)n[nH]c4c3)n2)c1",
    "measurement": "-0.4%"
  },
  {
    "compoundStructure": "Cc1ccc(Nc2ccnc(Nc3cccc(C(N)=O)c3)n2)cc1O",
    "measurement": "7.12%"
  },
  {
    "compoundStructure": "N#Cc1cccc(Nc2nccc(-c3cnn4ncccc34)n2)c1",
    "measurement": "3.11%"
  },
  {
    "compoundStructure": "c1ccc(Cc2nc3ccc(Nc4ncnc5ccccc45)cc3[nH]2)cc1",
    "measurement": "-0.46%"
  },
  {
    "compoundStructure": "CC(C)c1ccc(Nc2nccc(-c3cnn4ncccc34)n2)cc1",
    "measurement": "0.7%"
  },
  {
    "compoundStructure": "COC(=O)Nc1nc2cc(Oc3ccc(NC(=O)Nc4cccc(Br)c4)cc3)ccc2[nH]1",
    "measurement": "1.64%"
  },
  {
    "compoundStructure": "Nc1nccc(-c2c(-c3ccc(F)cc3)nn3cc(C(F)(F)F)ccc23)n1",
    "measurement": "-1.99%"
  },
  {
    "compoundStructure": "COC(=O)c1cncc(/C=C/c2c(C)cc(O)cc2C)c1",
    "measurement": "1.48%"
  },
  {
    "compoundStructure": "Nc1nccc(C#Cc2cncnc2Nc2ccc(OCc3cccc(F)c3)c(Cl)c2)n1",
    "measurement": "-0.42%"
  },
  {
    "compoundStructure": "CCOc1nccc2c1nc(-c1nonc1N)n2CC",
    "measurement": "4.21%"
  }
]

* * *

molecular target: Mitogen-activated protein kinase 9 (Homo sapiens) (UniProt P45984); conditions: at 0.1 µM;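 also: values are mean inhibition of JNK2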
Sequence (P45984 whole entry, looked up): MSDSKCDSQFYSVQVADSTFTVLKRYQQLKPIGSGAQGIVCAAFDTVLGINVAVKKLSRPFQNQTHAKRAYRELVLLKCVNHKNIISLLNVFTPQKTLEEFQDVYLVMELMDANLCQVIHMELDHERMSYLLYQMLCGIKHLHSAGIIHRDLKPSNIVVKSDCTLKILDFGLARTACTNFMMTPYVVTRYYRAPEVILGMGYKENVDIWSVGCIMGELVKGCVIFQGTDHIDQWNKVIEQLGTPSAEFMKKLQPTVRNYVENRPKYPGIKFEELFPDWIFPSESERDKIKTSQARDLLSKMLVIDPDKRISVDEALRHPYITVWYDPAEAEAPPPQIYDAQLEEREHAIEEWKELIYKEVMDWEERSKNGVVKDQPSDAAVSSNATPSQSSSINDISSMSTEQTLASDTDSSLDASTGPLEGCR

[
  {
    "compoundStructure": "C[C@@H](Oc1cc(-n2cnc3ccc(OC[C@@H](O)CO)cc32)sc1C(N)=O)c1ccccc1Cl",
    "targetDesc": "Mitogen-activated protein kinase 9 (Homo sapiens) (UniProt P45984)",
    "inhibition, %": -0.38
  },
  {
    "compoundStructure": "NS(=O)(=O)c1ccc(N/N=C2\\C(=O)Nc3ccc(Cl)cc32)cc1",
    "targetDesc": "Mitogen-activated protein kinase 9 (Homo sapiens) (UniProt P45984)",
    "inhibition, %": 3.27
  },
  {
    "compoundStructure": "CC(C)c1ccc(Nc2nccc(-c3cnn4ncccc34)n2)cc1",
    "targetDesc": "Mitogen-activated protein kinase 9 (Homo sapiens) (UniProt P45984)",
    "inhibition, %": 5.25
  },
  {
    "compoundStructure": "COc1cccc(-n2ncc3c(N/N=C/c4ccc(S(C)(=O)=O)cc4)ncnc32)c1",
    "targetDesc": "Mitogen-activated protein kinase 9 (Homo sapiens) (UniProt P45984)",
    "inhibition, %": 1.92
  },
  {
    "compoundStructure": "Cc1cc(Cl)cc2c1NC(=O)C2=NNc1ccc(S(N)(=O)=O)cc1",
    "targetDesc": "Mitogen-activated protein kinase 9 (Homo sapiens) (UniProt P45984)",
    "inhibition, %": -0.14
  },
  {
    "compoundStructure": "N#Cc1c(NC(=O)c2ccccc2F)sc2c1CCCC2",
    "targetDesc": "Mitogen-activated protein kinase 9 (Homo sapiens) (UniProt P45984)",
    "inhibition, %": -2.15
  },
  {
    "compoundStructure": "Cc1ccc(O)cc1Nc1ccnc2ccc(S(C)(=O)=O)cc12",
    "targetDesc": "Mitogen-activated protein kinase 9 (Homo sapiens) (UniProt P45984)",
    "inhibition, %": 4.77
  },
  {
    "compoundStructure": "C[C@@H](Oc1cc(-n2cnc3ccc(OCC4CCN(C)CC4)cc32)sc1C(N)=O)c1ccccc1C(F)(F)F",
    "targetDesc": "Mitogen-activated protein kinase 9 (Homo sapiens) (UniProt P45984)",
    "inhibition, %": -0.81
  },
  {
    "compoundStructure": "NS(=O)(=O)c1cccc(Nc2cc(-c3ccc(F)cc3)n[nH]2)c1",
    "targetDesc": "Mitogen-activated protein kinase 9 (Homo sapiens) (UniProt P45984)",
    "inhibition, %": 1.28
  },
  {
    "compoundStructure": "COc1ccc(-c2nn3ncccc3c2-c2ccnc(Nc3cccc(C(F)(F)F)c3)n2)cc1",
    "targetDesc": "Mitogen-activated protein kinase 9 (Homo sapiens) (UniProt P45984)",
    "inhibition, %": 3.29
  },
  {
    "compoundStructure": "Oc1cccc(-c2nc(-c3ccccc3)[nH]c2-c2ccncc2)c1",
    "targetDesc": "Mitogen-activated protein kinase 9 (Homo sapiens) (UniProt P45984)",
    "inhibition, %": 2.02
  },
  {
    "compoundStructure": "O=C1Nc2ccc(-c3cccnc3)cc2C1=Cc1cc(Br)c(O)c(Br)c1",
    "targetDesc": "Mitogen-activated protein kinase 9 (Homo sapiens) (UniProt P45984)",
    "inhibition, %": 1.52
  },
  {
    "compoundStructure": "NS(=O)(=O)c1ccc(-c2cc3ccncc3cc2OCc2ccccc2)cc1",
    "targetDesc": "Mitogen-activated protein kinase 9 (Homo sapiens) (UniProt P45984)",
    "inhibition, %": 3.39
  },
  {
    "compoundStructure": "COC(=O)c1cncc(/C=C/c2c(C)cc(O)cc2C)c1",
    "targetDesc": "Mitogen-activated protein kinase 9 (Homo sapiens) (UniProt P45984)",
    "inhibition, %": -0.35
  },
  {
    "compoundStructure": "CS(=O)(=O)Nc1cccc(-c2ccc3c(NC(=O)C4CC4)n[nH]c3c2)c1",
    "targetDesc": "Mitogen-activated protein kinase 9 (Homo sapiens) (UniProt P45984)",
    "inhibition, %": 2.2
  },
  {
    "compoundStructure": "NS(=O)(=O)c1cccc(-c2cc3ccncc3cc2OCc2ccccc2)c1",
    "targetDesc": "Mitogen-activated protein kinase 9 (Homo sapiens) (UniProt P45984)",
    "inhibition, %": 0.94
  },
  {
    "compoundStructure": "NC(=O)c1cccc(Nc2nccc(Nc3cccc(F)c3)n2)c1",
    "targetDesc": "Mitogen-activated protein kinase 9 (Homo sapiens) (UniProt P45984)",
    "inhibition, %": 0.09
  },
  {
    "compoundStructure": "COc1cc(/C=N/Nc2ncnc3c2cnn3C(C)C)ccc1O",
    "targetDesc": "Mitogen-activated protein kinase 9 (Homo sapiens) (UniProt P45984)",
    "inhibition, %": 2.63
  },
  {
    "compoundStructure": "COC(=O)Nc1nc2cc(Oc3ccc(NC(=O)Nc4cccc(Br)c4)cc3)ccc2[nH]1",
    "targetDesc": "Mitogen-activated protein kinase 9 (Homo sapiens) (UniProt P45984)",
    "inhibition, %": 3.12
  },
  {
    "compoundStructure": "CC(C)c1ccc2c(c1)NC(=O)/C2=N/Nc1ccc(S(N)(=O)=O)cc1",
    "targetDesc": "Mitogen-activated protein kinase 9 (Homo sapiens) (UniProt P45984)",
    "inhibition, %": 0.14
  },
  {
    "compoundStructure": "Cc1cc(O)cc(C)c1/C=C/c1cncc(C(=O)N(C)C)c1",
    "targetDesc": "Mitogen-activated protein kinase 9 (Homo sapiens) (UniProt P45984)",
    "inhibition, %": -0.29
  },
  {
    "compoundStructure": "Cc1ccc(NC(=O)CC2CC2)cc1-c1ccc(C(=O)NCC2CC2)cc1",
    "targetDesc": "Mitogen-activated protein kinase 9 (Homo sapiens) (UniProt P45984)",
    "inhibition, %": 3.4
  }
]
